# TESTED_SYSTEM: HLA-DR DRB1*0401 (DR4) (Homo sapiens, UniProt P01903+P01911, A100K/A169T/F76Y/I96L/K127E/L162R/M171V/N62H/P40V/Q125Y/R42H/S133A/S149N/S66Y/V115G/V209L/W38E)
# ASSAY: biochemical
# Format: binding
# CONDITIONS_USED: DRB1 *0401
# pIC50 per record follows
# log scale: pIC50 equals minus log10 of the concentration in mol/L

Study these solved cases before continuing.
CC[C@H](C)[C@H](NC(=O)[C@H](CS)NC(=O)[C@H](Cc1c[nH]cn1)NC(=O)[C@H](C)NC(=O)[C@H](C)NC(=O)[C@@H](NC(=O)[C@H](CC(C)C)NC(=O)[C@@H](NC(=O)[C@H](Cc1c[nH]c2ccccc12)NC(=O)[C@@H](N)CCC(N)=O)C(C)C)[C@@H](C)O)C(=O)N[C@@H](CCCNC(=N)N)C(=O)N[C@@H](CC(N)=O)C(=O)N[C@@H](CCCCN)C(=O)N[C@@H](CO)C(=O)N[C@H](C(=O)O)C(C)C
4.71
CC(C)C[C@H](NC(=O)[C@H](C)NC(=O)[C@H](Cc1ccccc1)NC(=O)[C@@H](N)[C@@H](C)O)C(=O)N[C@@H](Cc1c[nH]c2ccccc12)C(=O)N[C@@H](CCCNC(=N)N)C(=O)N[C@H](C(=O)N[C@@H](CO)C(=O)N[C@@H](C)C(=O)N[C@@H](CCC(=O)O)C(=O)N[C@@H](CCC(=O)O)C(=O)N[C@@H](Cc1ccc(O)cc1)C(=O)O)C(C)C
6.47

Now for a further compound.
Reported pIC50 for CSCC[C@H](NC(=O)[C@H](CC(=O)O)NC(=O)[C@H](Cc1ccc(O)cc1)NC(=O)[C@H](CC(C)C)NC(=O)[C@@H]1CCCN1C(=O)[C@H](Cc1c[nH]cn1)NC(=O)[C@@H]1CCCN1)C(=O)N[C@@H](CO)C(=O)N[C@@H](CC(C)C)C(=O)N[C@@H](CC(C)C)C(=O)N[C@@H](CCCCN)C(=O)N[C@@H](CC(N)=O)C(=O)N[C@@H](CCCNC(=N)N)C(=O)N[C@@H](Cc1ccccc1)C(=O)N[C@@H](CC(C)C)C(=O)O was 4.68

These data points were gathered from patent US20060079453A1.
